Kindly state microsomal CLint at 1 µM for each of the entries shown.
- Experiment description: In vitro liver microsomal stability assay, human
- Format: in vitro ADME
- Test settings: Human liver microsomes; read-out: CLint(mic)
Number in µL/min/mg, nothing else.

Req: Field request: microsomal CLint at 1 µM | item: `C[C@@]1(O)CC[C@H]2[C@H](CC[C@@H]3[C@@H]2CC[C@]2(C)[C@@H](C(=O)Cn4cnn(-c5ccc(F)cc5)c4=O)CC[C@@H]32)C1`
Resp: 14

Req: Field request: microsomal CLint at 1 µM | item: `C[C@@]1(O)CC[C@H]2[C@H](CC[C@@H]3[C@@H]2CC[C@]2(C)[C@@H](C(=O)Cn4cnn(CCOC(F)(F)F)c4=O)CC[C@@H]32)C1`
Resp: 45

Req: Field request: microsomal CLint at 1 µM | item: `C[C@@]1(O)CC[C@H]2[C@H](CC[C@@H]3[C@@H]2CC[C@]2(C)[C@@H](C(=O)Cn4cnn(-c5cccc(N)c5)c4=O)CC[C@@H]32)C1`
Resp: 178

----------
- Experiment description: In vitro liver microsomal stability assay, human
- Type: in vitro ADME
- Test settings: Human liver microsomes
Kindly state half-life at 1 µM for each of the entries shown.

Req: Field request: half-life at 1 µM | item: `COc1cccc(-n2ncn(CC(=O)[C@H]3CC[C@H]4[C@@H]5CC[C@@H]6C[C@](C)(O)CC[C@@H]6[C@H]5CC[C@]34C)c2=O)c1`
Resp: 0.875 h

Req: Field request: half-life at 1 µM | item: `C[C@@]1(O)CC[C@H]2[C@H](CC[C@@H]3[C@@H]2CC[C@]2(C)[C@@H](C(=O)Cn4cnn(-c5cc(F)nc(F)c5)c4=O)CC[C@@H]32)C1`
Resp: > 3.1 h

Req: Field request: half-life at 1 µM | item: `C[C@@]1(O)CC[C@H]2[C@H](CC[C@@H]3[C@@H]2CC[C@]2(C)[C@@H](C(=O)Cn4cnn(-c5cccc(F)c5F)c4=O)CC[C@@H]32)C1`
Resp: 1.52 h

Req: Field request: half-life at 1 µM | item: `C[C@@]1(O)CC[C@H]2[C@H](CC[C@@H]3[C@@H]2CC[C@]2(C)[C@@H](C(=O)Cn4ccn(-c5cccc(F)c5)c4=O)CC[C@@H]32)C1`
Resp: 0.33 h

Req: Field request: half-life at 1 µM | item: `C[C@@]1(O)CC[C@H]2[C@H](CC[C@@H]3[C@@H]2CC[C@]2(C)[C@@H](C(=O)Cn4cnn(-c5cc(F)cc(F)c5)c4=O)CC[C@@H]32)C1`
Resp: 0.97 h

Req: Field request: half-life at 1 µM | item: `C[C@@]1(O)CC[C@H]2[C@H](CC[C@@H]3[C@@H]2CC[C@]2(C)[C@@H](C(=O)Cn4cnn(-c5nccs5)c4=O)CC[C@@H]32)C1`
Resp: 1.08 h

Req: Field request: half-life at 1 µM | item: `C[C@@]1(O)CC[C@H]2[C@H](CC[C@@H]3[C@@H]2CC[C@]2(C)[C@@H](C(=O)Cn4cnn(C5CCCCC5)c4=O)CC[C@@H]32)C1`
Resp: 0.292 h

Req: Field request: half-life at 1 µM | item: `C[C@@]1(O)CC[C@H]2[C@H](CC[C@@H]3[C@@H]2CC[C@]2(C)[C@@H](C(=O)Cn4cnn(-c5cccc(C#N)c5)c4=O)CC[C@@H]32)C1`
Resp: 2.96 h

Req: Field request: half-life at 1 µM | item: `C[C@@]1(O)CC[C@H]2[C@H](CC[C@@H]3[C@@H]2CC[C@]2(C)[C@@H](C(=O)Cn4cnn(-c5cc(F)cc(C#N)c5)c4=O)CC[C@@H]32)C1`
Resp: 1.7 h

Req: Field request: half-life at 1 µM | item: `Cn1ncn(CC(=O)[C@H]2CC[C@H]3[C@@H]4CC[C@@H]5C[C@](C)(O)CC[C@@H]5[C@H]4CC[C@]23C)c1=O`
Resp: 2.1 h

Req: Field request: half-life at 1 µM | item: `C[C@@]1(O)CC[C@H]2[C@H](CC[C@@H]3[C@@H]2CC[C@]2(C)[C@@H](C(=O)Cn4cnn(C5CCCC5)c4=O)CC[C@@H]32)C1`
Resp: 0.345 h

Req: Field request: half-life at 1 µM | item: `C[C@@]1(O)CC[C@H]2[C@H](CC[C@@H]3[C@@H]2CC[C@]2(C)[C@@H](C(=O)Cn4cnn(-c5ccnc(OC(F)(F)F)c5)c4=O)CC[C@@H]32)C1`
Resp: > 3.1 h

Req: Field request: half-life at 1 µM | item: `C[C@@]1(O)CC[C@H]2[C@H](CC[C@@H]3[C@@H]2CC[C@]2(C)[C@@H](C(=O)Cn4cnn(-c5ccccc5)c4=O)CC[C@@H]32)C1`
Resp: 1.96 h
